Biological target: IRAK-M (Homo sapiens)
Sequence (Q9Y616 1-596): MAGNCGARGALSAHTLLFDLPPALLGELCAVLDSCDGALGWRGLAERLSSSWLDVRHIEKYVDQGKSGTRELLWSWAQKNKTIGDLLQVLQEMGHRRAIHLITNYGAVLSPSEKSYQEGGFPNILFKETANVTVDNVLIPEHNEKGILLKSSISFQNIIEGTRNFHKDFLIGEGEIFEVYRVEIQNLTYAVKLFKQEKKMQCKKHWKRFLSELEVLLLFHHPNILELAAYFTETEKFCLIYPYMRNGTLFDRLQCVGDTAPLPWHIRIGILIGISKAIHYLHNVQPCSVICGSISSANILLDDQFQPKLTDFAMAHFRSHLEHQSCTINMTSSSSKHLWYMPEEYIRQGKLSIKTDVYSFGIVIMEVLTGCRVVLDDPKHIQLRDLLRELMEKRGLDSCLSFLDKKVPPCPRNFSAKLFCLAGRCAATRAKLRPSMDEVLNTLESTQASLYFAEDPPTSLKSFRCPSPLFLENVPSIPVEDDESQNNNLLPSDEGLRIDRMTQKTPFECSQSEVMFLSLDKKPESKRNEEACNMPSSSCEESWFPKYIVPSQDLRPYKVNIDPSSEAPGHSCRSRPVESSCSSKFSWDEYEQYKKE
Experiment: In vitro degradation activity of target protein (IRAK-M ELISA in THP1 cells)
Format: cell-based
Design: host or cells: THP1 cells
Settings: 24 hours, second symbol of cell, read-out: IRAK-M 50% degradation concentration (DC50 value)
Experimental: In vitro degradation activities of target protein of the example compounds were evaluated using Enzyme-linked immuno-sorbent assay (ELISA) by the following assay steps. […] Protein concentrations were determined by the BCA assay (Sigma, Cat #QPBCA-1KT). The ELISA assay was performed using the Human IRAK3/IRAKM/IRAK-M ELISA Kit (LifeSpan BioSciences, Cat #LS-F35271), and the protein levels of IRAK-M were evaluated according to the kit protocol. […]
Structures can show the parent of a compound that is named as a salt.

- compound: "CN[C@@H](C)C(=O)N[C@H](C(=O)N1CCN(C(=O)c2cc3c(OCCOCCOCCOCCOc4cc(CN5CCC(Oc6ccnc7ccsc67)CC5)on4)c(F)c(F)cc3n2C)CC1)C1CCCCC1"
  DC50: "100 to 300 nM"
- compound: "CN[C@@H](C)C(=O)N[C@H](C(=O)N1CCN(C(=O)c2c(Cl)c3cc(F)ccc3n2CC(=O)N(C)CCOCCOCCOCCOc2cc(CN3CCC(Oc4ccnc5ccsc45)CC3)on2)CC1)C1CCCCC1"
  DC50: "300 to 1000 nM"
- compound: "CN[C@@H](C)C(=O)N[C@H](C(=O)N1CCN(C(=O)c2cc3cc(F)c(F)cc3n2CC(=O)N2CCC[C@H]2COc2cc(CN3CCC(Oc4ccnc5ccsc45)CC3)on2)CC1)C1CCC(F)(F)CC1"
  DC50: "100 to 300 nM"
- compound: "CN[C@@H](C)C(=O)N[C@H](C(=O)N1CCN(C(=O)c2c(Cl)c3cc(F)ccc3n2CC(=O)N2CCC[C@H]2COc2cc(CN3CCC(Oc4ccnc5ccsc45)CC3)on2)CC1)C1CCCCC1"
  DC50: "300 to 1000 nM"
- compound: "CN[C@@H](C)C(=O)N[C@H](C(=O)N1CCN(C(=O)c2cc3cc(F)ccc3n2CC(=O)N2CCC[C@H]2COc2cc(CN3CCC(Oc4ccnc5ccsc45)CC3)on2)CC1)C1CCCCC1"
  DC50: "< 30 nM"
- compound: "CN[C@@H](C)C(=O)N[C@H](C(=O)N1CCN(C(=O)c2cc3cc(F)c(F)cc3n2CC(=O)N2CCC[C@H]2COc2cc(CN3CCC(Oc4ccnc5ccsc45)CC3)on2)[C@@H](C)C1)C1CCCCC1"
  DC50: "< 30 nM"
- compound: "CN[C@@H](C)C(=O)N[C@H](C(=O)N1CCN(C(=O)c2cc3cc(F)c(F)cc3n2CC(=O)N2CCC[C@H]2COc2cc(CN3CCC(Oc4ccnc5ccsc45)CC3)on2)[C@@H](C)C1)C1CCC(F)(F)CC1"
  DC50: "30 to 100 nM"
- compound: "CN[C@@H](C)C(=O)N[C@H](C(=O)N1CCN(C(=O)c2c(C(=O)N(C)CCOCCOCCOc3cc(CN4CCC(Oc5ccnc6ccsc56)CC4)on3)c3cc(F)c(F)cc3n2C)CC1)C1CCCCC1 [Example 1, hydrochloride]"
  DC50: "300 to 1000 nM"
- compound: "CN[C@@H](C)C(=O)N[C@H](C(=O)N1CCN(C(=O)c2c(C(=O)NCCOCCOCCOc3cc(CN4CCC(Oc5ccnc6ccsc56)CC4)on3)c3cc(F)c(F)cc3n2C)[C@@H](C)C1)C1CCCCC1"
  DC50: "100 to 300 nM"
- compound: "CN[C@@H](C)C(=O)N[C@H](C(=O)N1CCN(C(=O)c2c(F)c3cc(F)ccc3n2CC(=O)N2CCC[C@H]2COc2cc(CN3CCC(Oc4ccnc5ccsc45)CC3)on2)CC1)C1CCCCC1"
  DC50: "100 to 300 nM"
- compound: "CN[C@@H](C)C(=O)N[C@H](C(=O)N1CCN(C(=O)c2c(F)c3cc(F)ccc3n2CC(=O)N(C)CCOCCOCCOCCOc2cc(CN3CCC(Oc4ccnc5ccsc45)CC3)on2)CC1)C1CCCCC1"
  DC50: "300 to 1000 nM"
- compound: "CN[C@@H](C)C(=O)N[C@H](C(=O)N1CCN(C(=O)c2c(Cl)c3ccccc3n2CC(=O)N(C)CCOCCOCCOCCOc2cc(CN3CCC(Oc4ccnc5ccsc45)CC3)on2)CC1)C1CCCCC1"
  DC50: "300 to 1000 nM"
- compound: "CN[C@@H](C)C(=O)N[C@H](C(=O)N1CCN(C(=O)c2c(C)c3cc(F)ccc3n2CC(=O)N(C)CCOCCOCCOCCOc2cc(CN3CCC(Oc4ccnc5ccsc45)CC3)on2)CC1)C1CCCCC1"
  DC50: "300 to 1000 nM"
- compound: "CN[C@@H](C)C(=O)N[C@H](C(=O)N1CCN(C(=O)c2cc3cc(F)c(F)cc3n2CC(=O)N(C)CCOCCOCCOCCOc2cc(CN3CCC(Oc4ccnc5ccsc45)CC3)on2)CC1)C1CCCCC1 [Example 24, hydrochloride]"
  DC50: "300 to 1000 nM"
- compound: "CN[C@@H](C)C(=O)N[C@H](C(=O)N1CCN(C(=O)c2cc3cc(F)c(F)cc3n2CC(=O)N2CCC[C@H]2COc2cc(CN3CCC(Oc4ccnc5ccsc45)CC3)on2)CC1)C1CCCCC1 [Example 25, hydrochloride]"
  DC50: "30 to 100 nM"
- compound: "CN[C@@H](C)C(=O)N[C@H](C(=O)N1CCN(C(=O)c2c(F)c3ccccc3n2CC(=O)N(C)CCOCCOCCOCCOc2cc(CN3CCC(Oc4ccnc5ccsc45)CC3)on2)CC1)C1CCCCC1"
  DC50: "300 to 1000 nM"
- compound: "CN[C@@H](C)C(=O)N[C@H](C(=O)N1CCN(C(=O)c2cc3cc(F)ccc3n2CC(=O)N2CCC[C@H]2COc2cc(CN3CCC(Oc4ccnc5ccsc45)CC3)on2)[C@@H](C)C1)C1CCCCC1"
  DC50: "< 30 nM"
- compound: "CN[C@@H](C)C(=O)N[C@H](C(=O)N1CCN(C(=O)c2cc3cc(F)c(F)cc3n2CC(=O)N2CCOC[C@H]2COc2cc(CN3CCC(Oc4ccnc5ccsc45)CC3)on2)CC1)C1CCCCC1"
  DC50: "300 to 1000 nM"
